- Tested on: SF-268 CNS
- Assay Info: NCI tumour cell line growth inhibition, 48 h
Exercise: for every item that follows, state its recorded TGI.

Problem: Entry "Cn1/c(=N\S(=O)(=O)c2ccccc2)n(S(=O)(=O)c2ccccc2)c2ccccc21" : reported TGI = ?
Result: > 100 µM

Problem: Entry "CN(C)CCNC(=O)c1cccc2c1nc(-c1ccccc1)c1ccccc12" : reported TGI = ?
Result: 18.5 µM

Problem: Entry COc1cc(OC)c(C2CC=Cc3c(OC)cc(OC)c(OC)c32)cc1OC (stereo unspecified) : reported TGI = ?
Result: > 100 µM

Problem: Entry CCc1cccc(C(C)C)c1NC(=O)C(=O)C(CC(=O)Nc1ccc(Cl)c(Cl)c1)C(=O)OC (stereo unspecified) : reported TGI = ?
Result: > 100 µM

Problem: Entry Fc1ccc2nc3n(c2c1)C(c1c(Cl)cccc1Cl)SC3 (stereo unspecified) : reported TGI = ?
Result: > 100 µM

Problem: Entry "O=C1CCCC/C1=C\c1ccc(Br)cc1" : reported TGI = ?
Result: 36.3 µM

Problem: Entry "O=C1CCC(=O)N1n1c(Cc2ccc(Cl)cc2)n[nH]c1=O" : reported TGI = ?
Result: > 100 µM

Problem: Entry "COc1ccc(-c2nc3ccccn3c2/C=C/C(=O)c2cc(OC)c(OC)c(OC)c2)cc1" : reported TGI = ?
Result: > 100 µM

Problem: Entry N=C(N)SCc1ccc(Cl)cc1Cl (tested in a mixture with another compound) : reported TGI = ?
Result: 40 µM

Problem: Entry c1ccc2c(c1)ncn2C1CCCCO1 (stereo unspecified) : reported TGI = ?
Result: > 100 µM

Problem: Entry "Cc1c(COc2cc(OCc3cccc(C#N)c3)c(CN3C[C@H](O)C[C@@H]3C(=O)O)cc2Cl)cccc1-c1ccc2c(c1)OCCO2" : reported TGI = ?
Result: 42.6 µM

Problem: Entry "O=C(Cn1ccnc1[N+](=O)[O-])c1ccc(F)cc1" : reported TGI = ?
Result: > 100 µM

Problem: Entry "CCNC(=O)c1cc2c(-c3cc(C(C)(C)O)ccc3Oc3c(C)cc(F)cc3C)cn(C)c(=O)c2[nH]1" : reported TGI = ?
Result: 18.6 µM

Problem: Entry "COC(=O)C1=C(C)NC(C)=C(C(=O)OC)C1/C=C(Cl)/C=C/c1ccccc1" : reported TGI = ?
Result: 58.8 µM

Problem: Entry "N#Cc1c(N)sc2c1-c1ccccc1OC2" : reported TGI = ?
Result: > 100 µM

Problem: Entry CCOC(=O)C(Cl)(NC(=O)c1c(F)c(F)c(F)c(F)c1F)C(F)(F)F (stereo unspecified) : reported TGI = ?
Result: > 100 µM

Problem: Entry CCOC(=O)C1=C(C)N(c2ccc(C)cc2)C2=C(C(=O)N(c3ccccc3)C2c2ccccc2)C1c1ccccc1 (stereo unspecified) : reported TGI = ?
Result: > 25 µM

Problem: Entry "CCOc1ccc(/C=N/[N+](C)(C)C)cc1OCC" : reported TGI = ?
Result: > 10 µM

Problem: Entry CC(C)C1=CCC2C(=C1)CCC1C(C)(C(=O)O)CCCC21C (stereo unspecified) (tested in a mixture with another compound) : reported TGI = ?
Result: > 100 µM

Problem: Entry O=CC(O)C(O)C(O)C(O)COP(=O)(O)Cc1ccccc1 (stereo unspecified) : reported TGI = ?
Result: > 10 µM

Problem: Entry "c1cc(CNCCN2CCNCC2)ccn1" : reported TGI = ?
Result: > 100 µM
